Where do these numbers come from? They come from ChEMBL document CHEMBL5260813.

Readings of Ratio IC50 for the listed compounds
# Tested on: HT-29
# assay_notes: Potency index, ratio of tirapazamine IC50 to compound IC50 for antiproliferative activity against human HT-29 cells
# Format: functional

- structure_notation: "[O-][n+]1nc(CCO)nc2ccccc21"
  target_desc: "HT-29"
  Ratio IC50: 1.2
- structure_notation: "COc1nc2ccccc2[n+]([O-])n1"
  target_desc: "HT-29"
  Ratio IC50: 3.3
- structure_notation: "CN(C)CCCNc1nc2ccccc2[n+]([O-])n1"
  target_desc: "HT-29"
  Ratio IC50: 1.2
- structure_notation: "CNCCNc1nc2ccccc2[n+]([O-])n1"
  target_desc: "HT-29"
  Ratio IC50: 6.11
- structure_notation: "CCc1nc2ccccc2[n+]([O-])n1"
  target_desc: "HT-29"
  Ratio IC50: 1.3
- structure_notation: "CN(C)CCNc1nc2ccccc2[n+]([O-])n1"
  target_desc: "HT-29"
  Ratio IC50: 3.9
- structure_notation: "Nc1nc2ccccc2[n+]([O-])n1"
  target_desc: "HT-29"
  Ratio IC50: 2
- structure_notation: "N#CCNc1nc2ccccc2[n+]([O-])n1"
  target_desc: "HT-29"
  Ratio IC50: 1.9
